# viability at 28.5 h, 10 µM listing for each entry below
experiment: in vitro; details: human, hela cells, % viability, bulk resorufin, single well
State just the number; it will be interpreted in %.

Worked cases, answers included:
>>> reported_measurement("CC(C)(N)C(=O)N1CCC2(CC1)OCc1cc(-c3ccc(S(C)(=O)=O)nc3)ccc1O2 [CBK160868]")
93.3
>>> reported_measurement("CN(C)CCCN/C=C1/C(=O)NC(=S)N(c2ccc(Cl)cc2)C1=O [CBK261828]")
91.6
>>> reported_measurement("CSc1cc(C)c2c(c1)COC1(CCN(C(=O)Cc3ccccc3)CC1)O2 [CBK061099]")
93.4
>>> reported_measurement("CC(=O)N1CCC2(CC1)OCc1cc(-c3cccc4cccnc34)ccc1O2 [CBK060969]")
88.4
>>> reported_measurement("CC(=O)N1CCC2(CC1)OCc1cc(-c3cnc4ccccc4c3)ccc1O2 [CBK060976]")
93.8
>>> reported_measurement("Cc1ccc(C=C2C(=O)NC(=O)NC2=O)cc1[N+](=O)[O-] [CBK262102]")
97.9
>>> reported_measurement("CCOC(=O)C1(c2ccccc2)CCN(C(=O)C2COc3ccccc3O2)CC1 (stereo not drawn) [CBK132178]")
93.3
>>> reported_measurement("CC(C)(C)OC(=O)NCCCCC(=O)N1CCC(C#N)(c2ccccc2)CC1 [CBK091401]")
89.4

Return reported viability at 28.5 h, 10 µM. Input compound: CC(=O)[C@H]1C[C@@H](CC(=O)N2CCC(C#N)(c3ccccc3)CC2)C1(C)C [CBK091393]
91.5

* * *

test: in vitro; design: Viability of infected HeLa host cells, resazurin conversion, bulk resorufin fluorescence relative to DMSO; conditions: human, hela cells; bulk resorufin, mean of 3
In plain terms, low viability at 28.5 h, 10 µM, meaning strictly below 90%, gives Fulfilled, and everything else gives Not fulfilled.

Some entries whose results are on file:
>>> assigned_category("CN(C)c1ccc(Nc2nc(NCCO)c3ccccc3n2)cc1 [c27e]")
"Not fulfilled"
>>> assigned_category("COc1ccc(CC(=O)N2CCCC(c3nc(C)c4c(n3)N(CC3CC3)CCC4)C2)cc1 (stereo not shown) [c52e]")
"Not fulfilled"
>>> assigned_category("c1c(C2CC2)[nH]c2nc(N3CCCC3)nc(N3CCCC3)c12")
"Fulfilled"
>>> assigned_category("O=[N+]([O-])c1ccc2[nH]c3c(c2c1)CCCC3NC1CCN(CCc2ccccc2)CC1 (stereo not shown) [c23e]")
"Fulfilled"
>>> assigned_category("O=C(c1ccc(-c2ccc(F)cc2)o1)N1C[C@H]2CC[C@](O)(c3ccc(F)cc3)[C@H]2C1")
"Not fulfilled"
>>> assigned_category("CC1=C(C)C(=NNC(N)=S)C(C)=C(C)C1=NNC(N)=S [c19e]")
"Not fulfilled"
>>> assigned_category("Fc1cc(Br)c(CNCc2ncc[nH]2)c(N2CCCCC2)c1F [c31e]")
"Not fulfilled"
>>> assigned_category("COc1ccc2cc3c(nc2c1)OC(=O)N(CC1CC1)C3 [c32e]")
"Fulfilled"
>>> assigned_category("CC(=O)Nc1ccc(-c2cccc(COC3CCN(C(=O)c4ccc(OC(C)C)cc4)CC3)c2)cc1 [c36e]")
"Not fulfilled"
>>> assigned_category("CCC1C(c2ccc(C)cc2)=CCC(C(=O)NCCCN(C)C)C1C (stereo not shown) [c30e]")
"Not fulfilled"

Does COCCNc1nc2c(c(N3CCCCCC3)n1)CCNCC2 [c18e] have viability at 28.5 h, 10 µM strictly under 90%?
Not fulfilled

Hello, is viability at 28.5 h, 10 µM of the following molecule strictly smaller than 90%? O=C(Nc1ccc(OC(F)(F)F)cc1)Nc1cc(-c2cccs2)n[nH]1 [c26e]
Not fulfilled

Lab note: confirm whether the reported viability at 28.5 h, 10 µM for this molecule is below 90%, equality not counting. molecule: Cc1cccc(OCC(C)NC(=O)NCCc2cnn(C)c2)c1 (stereo not shown) [c47e]
Not fulfilled

The reported measurements were obtained from paper PMC12040169.
